Assay: Cellular Toxicity (caspase-3) Renal Proximal Tubule (AID 667);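 further: cells exposed to compound for 16 hours at 37 °C before detection; 0% = DMSO basal and 100% = 10 µM staurosporine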
Settings: renal proximal tubule cells; at 91.7 µM (top of the series) unless noted
Activity calls are given as the source filed them. The call rests on the fitted dose curve; in most records, active means well fitted activation curve with a large enough effect; inconclusive means small, poorly fitted or top-dose-only effect, or effect the other way; inactive means flat fitted curve, though single readings scatter.
Entries and their measured caspase-3 activation follow.

Examples with their reported caspase-3 activation follow.
N#CSCSC#N ... -11.6% (inactive)
[Cd+2].[Cl-].[Cl-] ... -13.6% (inactive)
CCCCCCCCn1sccc1=O ... -21.1% (inactive)
O=C1C2(Cl)C3(Cl)C4(Cl)C(Cl)(Cl)C5(Cl)C3(Cl)C1(Cl)C5(Cl)C24Cl (stereo unspecified) ... -3.9% (inactive)

In: Note caspase-3 activation for the compound shown: ClC1=C(Cl)C2(Cl)C3C(Cl)C(Cl)CC3C1(Cl)C2(Cl)Cl (stereo unspecified)
Out: 19% (inactive)

In: Note caspase-3 activation for the compound shown: CN(C)c1ccc(N=O)cc1
Out: -9.93% (inactive)

In: Note caspase-3 activation for the compound shown: Nc1ccccc1C(=O)OCCc1ccccc1
Out: -20.4% (inactive)

In: Note caspase-3 activation for the compound shown: C[C@@H]1CC[C@@]2(OC1)O[C@H]1[C@@H](O)[C@H]3[C@@H]4CC[C@H]5C[C@@H](O[C@@H]6O[C@H](CO)[C@H](O[C@@H]7O[C@H](CO)[C@@H](O)[C@H](O[C@@H]8OC[C@@H](O)[C@H](O)[C@H]8O)[C@H]7O[C@@H]7O[C@H](CO)[C@@H](O)[C@H](O[C@@H]8O[C@H](CO)[C@@H](O)[C@H](O)[C@H]8O)[C@H]7O)[C@H](O)[C@H]6O)[C@H](O)C[C@]5(C)[C@H]4CC[C@]3(C)[C@H]1[C@@H]2C
Out: -2.38% (inactive)

In: Note caspase-3 activation for the compound shown: [CH3][Hg][Cl]
Out: -5.2% (inactive)

----------
Target: Peroxisome proliferator-activated receptor delta (Homo sapiens)
Assay: qHTS assay for small molecule agonists of peroxisome proliferator-activated receptor delta signaling (AID 588534);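 further: 0% = DMSO basal wells and 100% = positive control agonist at 10 µM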
Details: HEK293T PPARdelta-UAS-bla, beta-lactamase ratio, 18 h; series mostly up to 76.7 µM
Inconclusive results are not listed. Calls of active or inactive are those of the source. The call rests on the fitted dose curve.
Measurement Type: outcome

Examples with their reported outcome follow.
O=C(O)c1ccc(Cl)c(Cl)c1 ... inactive
C=C(C)C(=O)OCCN(C)C ... inactive
Cc1cccc2cccnc12 ... inactive
CC(=O)CC(C)C ... inactive
CCOP(=S)(OCC)SCn1nnc2ccccc2c1=O ... inactive
NS(=O)(=O)C(F)(F)C(F)(F)C(F)(F)C(F)(F)C(F)(F)C(F)(F)C(F)(F)C(F)(F)F ... inactive
CC(=O)c1cccc([N+](=O)[O-])c1 ... inactive
CCN(CC)C(=O)C(C)Oc1cccc2ccccc12 (centres undefined) ... inactive
N#CCc1ccccc1[N+](=O)[O-] ... inactive
O=C=NC1CCC(CC2CCC(N=C=O)CC2)CC1 (centres undefined) ... inactive

// next entry
In: Name the value of outcome reported for CC(C)[C@@H]1CC[C@@H](C)C[C@H]1O when tested on Peroxisome proliferator-activated receptor delta (Homo sapiens).
Out: inactive

----------
Target: Estrogen receptor (Homo sapiens)
Test: qHTS assay for small molecule antagonists of estrogen receptor alpha signaling (AID 588513)
Settings: ER-alpha-UAS-bla HEK293, beta-lactamase ratio, antagonist mode; series mostly up to 76.9 µM
The source made the active and inactive calls. Calls come from the whole dose curve; as a rule, active = well fitted curve in the direction sought with a large enough effect in the signal ratio, with a control signal flat (not every such curve was filed as active); inconclusive = small, poorly fitted or top-dose-only effect, or effect the other way, or a change in a side signal; inactive = no such curve, though single readings can be large or run the other way; the % refers to the signal ratio.
Just give me one of these, please: active, inactive

// below: answered compounds
CCOc1nc(C(Cl)(Cl)Cl)ns1 ... inactive
CC1(C)Cc2cccc(O)c2O1 ... inactive
CCNP(=S)(OC)O/C(C)=C/C(=O)OC(C)C (stereo not drawn) ... inactive
Clc1ccc(C(c2ccc(Cl)cc2)C(Cl)Cl)cc1 ... active
CCOc1ccc(C(C)(C)COCc2cccc(Oc3ccccc3)c2)cc1 ... inactive

In: Record request — test call for COP(=S)(OC)Oc1ccc([N+](=O)[O-])c(C)c1
Out: inactive

In: Record request — test call for COC(=O)NS(=O)(=O)c1ccc(N)cc1
Out: inactive

In: Record request — test call for CCC[CH2][Sn]([CH2]CCC)([O]C(C)=O)[O]C(C)=O
Out: inactive

----------
Tested on: DIV30
Test: qHTS profiling for inhibitors of Plasmodium falciparum proliferation (AID 504749); further: nearly all actives have a fitted effect of over 60% in size; further: potency means the concentration at half of the fitted maximal effect
Conditions: P. falciparum in erythrocytes, SYBR Green DNA, 72 h; series mostly up to 28.7 µM
Results filed as inconclusive are left out. The source made the active and inactive calls. Calls follow the shape of the dose curve; as a rule, active = well fitted inhibition curve with a large enough effect; inconclusive = small, poorly fitted or top-dose-only effect; inactive = flat fitted curve, though single readings scatter.
Measurement Type: Potency

CC(CO)NC(=O)C1C=C2c3cccc4[nH]cc(c34)CC2N(C)C1 (centres undefined) ... inactive
C=CC[N+]1(C)CCC23c4c5ccc(O)c4O[C@H]2C(=O)CC[C@@]3(O)C1C5 (some centres undefined) ... inactive
CCC/C=C/C=C/C(=O)OC1/C(=C/C(=O)OC)CC2CC(C(C)O)OC(=O)CC(O)CC3CC(OC(C)=O)C(C)(C)C(O)(CC4C/C(=C/C(=O)OC)CC(/C=C\C(C)(C)C1(O)O2)O4)O3 (centres undefined) ... 1070 nM (active)
C=CC[C@]1(O)CCC2C3CCC4=CCCCC4C3CCC21C (some centres undefined) ... inactive

----------
Entries and their measured activity change, negative = inhibition follow.
Assay: NFAT Signaling Pathway (AID 444);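 further: carbachol stimulus at about its EC50 of 1 µM final; on the % scale 0 is the no-effect control and ±100 the full control effect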
Details: Jurkat NFAT-bla M1, carbachol, beta-lactamase ratio, 5 h; at 17.2 µM (top of the series) unless noted
Method: NCGC Assay Overview: The nuclear factor of activated T cells (NFAT) family of transcription factors has been found primarily in most immune system cells and some other non-immune cells. NFAT plays the immunomodulatory role, primarily in T-cell activation and differentiation. […] NCGC Assay Protocol Summary: The cells were prepared in RPMI 1640 medium containing 0.1% dialyzed FBS and 25 mM HEPES at 1.6 x 10^6cell/ml. […] The %Activity was determined from the ratio of 460nm/530nm. […]
Records with an inconclusive call do not appear. Active and inactive are the calls of the source. Calls come from the whole dose curve; as a rule, active = well fitted curve in either direction with a large enough effect (not every such curve was filed as active); inconclusive = small, poorly fitted or top-dose-only effect, or another doubt; inactive = flat fitted curve, though single readings scatter.

Examples with their reported activity change, negative = inhibition follow.
C[C@@H]1O[C@@H](O[C@H]2C[C@@H](O)[C@]3(CO)[C@@H]4[C@@H](O)C[C@]5(C)[C@H](C6=CC(=O)OC6)CC[C@@]5(O)[C@H]4CC[C@@]3(O)C2)[C@H](O)[C@H](O)[C@@H]1O ... -76.4% [at 38 µM] (active)
CCCCSP1(=S)NCCCO1 (centres undefined) ... 1.86% (inactive)

In: Note activity change, negative = inhibition for the molecule shown: COc1cccc(-n2c(C)nc3ccccc3c2=O)c1
Out: 3.48% (inactive)

In: Note activity change, negative = inhibition for the molecule shown: C[C@@H](Cc1ccc2c(c1)OC(C(=O)O)(C(=O)O)O2)NC[C@H](O)c1cccc(Cl)c1
Out: 14.6% [at 38 µM] (inactive)

In: Note activity change, negative = inhibition for the molecule shown: Nc1ccc(C2(c3ccc(N)cc3)CN3CCC2CC3)cc1
Out: -2.19% (inactive)

In: Note activity change, negative = inhibition for the molecule shown: Nc1ncc(P(=S)(N2CCOCC2)N2CCOCC2)s1
Out: 4.78% (inactive)

In: Note activity change, negative = inhibition for the molecule shown: CN(C)CCOC(=O)c1cn(Cc2ccccc2)c2ccccc12
Out: -13.6% (inactive)

----------
Tested on: TAB113
Experiment: qHTS profiling for inhibitors of Plasmodium falciparum proliferation (AID 504749); further: nearly all actives have a fitted effect of over 60% in size
Details: P. falciparum in erythrocytes, SYBR Green DNA, 72 h; series mostly up to 28.7 µM
Results filed as inconclusive are left out. Calls of active or inactive are those of the source. The call rests on the fitted dose curve; in most records, active means well fitted inhibition curve with a large enough effect; inconclusive means small, poorly fitted or top-dose-only effect; inactive means flat fitted curve, though single readings scatter.
Just give me one of these, please: active, inactive

// below: answered compounds
CCCC(C)C1(CC)C(=O)NC(=S)NC1=O (stereo unspecified) ... inactive
CCC/C=C/C=C/C(=O)OC1/C(=C/C(=O)OC)CC2CC(C(C)O)OC(=O)CC(O)CC3CC(OC(C)=O)C(C)(C)C(O)(CC4C/C(=C/C(=O)OC)CC(/C=C\C(C)(C)C1(O)O2)O4)O3 (stereo unspecified) ... active
CC(=O)Oc1ccc2c3c1OC1[C@@H](OC(C)=O)C=C[C@H]4[C@H](C2)N(C)CC[C@]314 (stereo partly specified) ... inactive

In: Record request — test call for CCCCCCC(=O)O[C@H]1CC[C@H]2[C@@H]3CCC4CC(=O)C=C(C)[C@]4(C)[C@H]3CC[C@]12C (stereo partly specified)
Out: inactive

In: Record request — test call for CC(Cc1ccccc1)N(C)C (stereo unspecified)
Out: inactive

In: Record request — test call for OC[C@@H](O)[C@H]1O[C@@H]2OC(C(Cl)(Cl)Cl)O[C@H]2[C@H]1O (stereo partly specified)
Out: inactive

In: Record request — test call for CC12CCC3C4CCC(=O)C(O)=C4CCC3C1CCC2OC(=O)CCC1CCCC1 (stereo unspecified)
Out: inactive

In: Record request — test call for CC(=O)[C@H]1CC[C@H]2C3CC[C@H]4C[C@H](O)CC[C@]4(C)C3CC[C@]12C (stereo partly specified)
Out: inactive

In: Record request — test call for CCOC(=O)c1cncn1[C@@H](C)c1ccccc1
Out: inactive

In: Record request — test call for CN(C)C1C(=O)C(C(N)=O)C(=O)C2(O)C(=O)C3C(=O)c4c(O)cccc4C(C)(O)C3C(O)C12 (stereo unspecified)
Out: inactive

In: Record request — test call for CC1(C)[C@@H](C=C(Cl)Cl)[C@@H]1C(=O)OCc1c(F)c(F)cc(F)c1F
Out: inactive

In: Record request — test call for C[C@H](N)Cc1ccccc1
Out: inactive

In: Record request — test call for CC1CC[C@@]2(NC1)OC1CC3C4CC[C@@H]5CC(O)CC[C@@]5(C)C4CC[C@]3(C)C1C2C (stereo partly specified)
Out: inactive

In: Record request — test call for Cc1ccc2c(c1)[C@@H]1CN(C)CC[C@H]1N2
Out: inactive

In: Record request — test call for COC(C(=O)C(O)C(C)O)C1Cc2cc3cc(OC4CC(OC5CC(O)C(OC)C(C)O5)C(OC(C)=O)C(C)O4)c(C)c(O)c3c(O)c2C(=O)C1OC1CC(OC2CC(OC3CC(C)(O)C(OC(C)=O)C(C)O3)C(O)C(C)O2)C(O)C(C)O1 (stereo unspecified)
Out: active

In: Record request — test call for OCC(O)[C@H]1O[C@@H]2O[C@H](C(Cl)(Cl)Cl)O[C@@H]2[C@H]1O (stereo partly specified)
Out: inactive

In: Record request — test call for COC(=O)C1C(OC(=O)c2ccccc2)CC2CCC1N2C (stereo unspecified)
Out: inactive

In: Record request — test call for C=CC[N+]1(C)CCC23c4c5ccc(O)c4O[C@H]2C(=O)CC[C@@]3(O)C1C5 (stereo partly specified)
Out: inactive

In: Record request — test call for NC(Cc1ccc(Oc2cc(I)c(O)c(I)c2)c(I)c1)C(=O)O (stereo unspecified)
Out: inactive

In: Record request — test call for CCOC(=O)/C=C(C)/C=C/CC(C)CCCC(C)C (stereo unspecified)
Out: inactive

In: Record request — test call for C#CCN1CC(=O)N(COC(=O)[C@@H]2[C@@H](C=C(C)C)C2(C)C)C1=O
Out: inactive

From: PubChem BioAssay (NCATS)
